Let's look at some compounds and their measured melting point.

O=C(Nc1ccc(CN2CCCCC2)cc1)C1CCc2ccc(-c3ccccc3)cc2C1 (stereo not drawn) | 185 to 187 °C
C[N+]1(Cc2ccc(NC(=O)C3CCc4ccc(-c5ccccc5)cc4C3)cc2)CCCCC1.[I-] (stereo not drawn) | 205 to 208 °C
CN(Cc1ccc(NC(=O)C2=Cc3cc(OCc4ccccc4Cl)ccc3S(=O)(=O)CC2)cc1)C1CCOCC1 | 205 to 207 °C

Now for another entry.
Supply measured melting point of CCCOCCOc1ccccc1COc1ccc2c(c1)C=C(C(=O)Nc1ccc(CN(C)C3CCOCC3)cc1)CCS2(=O)=O in your reply.
136 to 138 °C

Value source: patent US6627651B1
